Assay: Serum concentration and pharmacokinetics of SCI after oral gavage in Wistar rats
Type: in vivo, Wistar rat
Details: male, Wistar, rat, serum, po, 10 mg/kg, Rat No 4; serum; oral 10 mg/kg; read-out: MRT (mean residence time)
assay.readout: MRT

Exercise: Which MRT is listed for O[C@H]1[C@H](O)[C@@H](O)[C@H](O)[C@@H](O)[C@@H]1O [SCI, scyllo-inositol] ?
Key: 1.1 h

* * *

Experiment: Serum concentration and pharmacokinetics of SCI after oral gavage in Wistar rats
Type: in vivo, Wistar rat
Details: male, Wistar, rat, serum, po, 10 mg/kg, Rat No 4; serum; oral 10 mg/kg; read-out: K (elimination rate constant) (converted)
assay.readout: k el (s⁻¹)
Could you give me the number in s⁻¹? Just the number is fine.

Exercise: Which k el is listed for O[C@H]1[C@H](O)[C@@H](O)[C@H](O)[C@@H](O)[C@@H]1O ?
Key: 0.000253

* * *

Experiment: Serum concentration and pharmacokinetics of SCI after oral gavage in Wistar rats
Format: in vivo, Wistar rat
Settings: male, Wistar, rat, serum, po, 10 mg/kg, Rat No 6; oral 10 mg/kg
assay.readout: AUC(0-t) (ng·h/mL)
Could you give me the number in ng·h/mL? Just the number is fine.

Exercise: Which AUC(0-t) is listed for O[C@H]1[C@H](O)[C@@H](O)[C@H](O)[C@@H](O)[C@@H]1O ?
Key: 22600

* * *

Assay: Serum concentration and pharmacokinetics of SCI after oral gavage in Wistar rats
Type: in vivo, Wistar rat
Conditions: male, Wistar, rat, serum, po, 10 mg/kg, Mean of rats 4–6 ± SEM; oral 10 mg/kg
assay.readout: Cmax (ng/mL)
Could you give me the number in ng/mL? Just the number is fine.

Exercise: Which Cmax is listed for O[C@H]1[C@H](O)[C@@H](O)[C@H](O)[C@@H](O)[C@@H]1O ?
Key: 4900

* * *

Test: Serum concentration and pharmacokinetics of SCI after oral gavage in Wistar rats
Format: in vivo, Wistar rat
Conditions: male, Wistar, rat, serum, po, 10 mg/kg, Mean concentration of SCI in serum, 30 min after oral 10 mg/kg; mean of rats 1–3
Procedure: All procedures were performed according to the Local Ethical Committee of Experiments on Animals guidelines in Olsztyn, Poland. The experiment was conducted in the same way as described by Antonowski et al.. […] The analysis is described in detail by Antonowski and co-workers. […] Next, samples were analyzed using the high-resolution gas chromatography method. […] Finally, scyllo-inositol was quantified by using a standard. The PK parameters were calculated using PK Solver. […]
assay.readout: concentration at 30 min (ng/mL)
Could you give me the number in ng/mL? Just the number is fine.

Exercise: Which concentration at 30 min is listed for O[C@H]1[C@H](O)[C@@H](O)[C@H](O)[C@@H](O)[C@@H]1O ?
Key: 3730

* * *

Test: Serum concentration and pharmacokinetics of SCI after oral gavage in Wistar rats
Assay type: in vivo, Wistar rat
Settings: male, Wistar, rat, serum, po, 10 mg/kg, Rat No 1; oral 10 mg/kg
assay.readout: Cmax (ng/mL)
Could you give me the number in ng/mL? Just the number is fine.

Exercise: Which Cmax is listed for O[C@H]1[C@H](O)[C@@H](O)[C@H](O)[C@@H](O)[C@@H]1O [SCI, scyllo-inositol] ?
Key: 7200
